System Tested: Smoothened (SMO) (Homo sapiens)
Sequence (Q99835 28-787): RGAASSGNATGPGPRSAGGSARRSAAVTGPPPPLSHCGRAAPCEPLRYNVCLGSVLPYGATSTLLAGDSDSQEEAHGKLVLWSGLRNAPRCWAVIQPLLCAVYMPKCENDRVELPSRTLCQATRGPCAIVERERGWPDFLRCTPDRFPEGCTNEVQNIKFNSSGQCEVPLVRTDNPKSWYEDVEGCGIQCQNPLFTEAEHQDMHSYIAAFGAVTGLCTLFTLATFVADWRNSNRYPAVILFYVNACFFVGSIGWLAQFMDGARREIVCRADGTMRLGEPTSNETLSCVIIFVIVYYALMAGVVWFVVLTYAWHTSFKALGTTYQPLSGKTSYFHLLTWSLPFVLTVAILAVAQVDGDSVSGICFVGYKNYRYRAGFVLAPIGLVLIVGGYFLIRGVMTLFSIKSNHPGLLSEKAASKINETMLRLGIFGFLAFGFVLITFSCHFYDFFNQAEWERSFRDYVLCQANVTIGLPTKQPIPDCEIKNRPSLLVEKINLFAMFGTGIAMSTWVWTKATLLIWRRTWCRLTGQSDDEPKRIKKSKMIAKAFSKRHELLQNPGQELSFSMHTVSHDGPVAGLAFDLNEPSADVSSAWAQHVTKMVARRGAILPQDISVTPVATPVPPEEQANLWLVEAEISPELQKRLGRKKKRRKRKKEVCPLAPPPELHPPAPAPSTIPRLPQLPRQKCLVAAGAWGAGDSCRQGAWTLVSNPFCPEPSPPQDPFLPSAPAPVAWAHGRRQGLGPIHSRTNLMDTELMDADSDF
Experiment: BODIPY-cyclopamine competition binding in SMO-transfected HeLa cells
Type: cell-based
Assay Metric: Kd
Please append the unit to your numeric answer.

Enquiry: # get_value(readout='Kd', item= `CC1=C2C[C@H]3[C@@H](CC=C4CC(=O)CC[C@@]43C)[C@@H]2CC[C@]12O[C@@H]1C[C@H](C)CN(CCNC(=O)CCCCCNC(=O)CCc3ccccc3)[C@H]1[C@H]2C` )
Return: 0.8 nM
